system: HCT-15 colon; assay: NCI-60 one-dose screen, 48 h; details: 10 µM unless noted
The panel holds about 83,000 compounds, 20% with a hit somewhere; the sample as a whole holds those more often. Active and inactive are the calls of the source. Rule for the calls: active = growth percent below 10; inactive = the rest.
Result category, one only: active, inactive

INSERT INTO results (compound, category) VALUES
  ('Cc1oc(-c2ccc(Cl)cc2Cl)cc1C(=O)Nc1nccs1', 'inactive'),
  ('C=CC(=O)Nc1cccc(-c2nc(SC)nc(NCCN3CCOCC3)c2C#N)c1', 'inactive'),
  ('CC(O)CN1CC(O)=C(c2nc3ccccc3s2)C1=N (stereo not given)', 'inactive'),
  ('COc1cc(Nc2cc(C)nc(N3CCN(c4ccnc5cc(Cl)ccc45)CC3)n2)cc(OC)c1', 'active');

Request: Test call, this compound: COc1cccc(/C=N/NC(=O)c2ccccc2Nc2ccnc(C(F)(F)F)c2)c1O
Response: inactive

Request: Test call, this compound: CC1=CC(C)(C)Nc2ccc(Cc3ccc4c(c3)C(C)=CC(C)(C)N4)cc21
Response: inactive

Request: Test call, this compound: COC(=O)c1ccc2oc(NC(=O)c3ccc(Nc4ccc([N+](=O)[O-])cc4C)c([N+](=O)[O-])c3)nc2c1
Response: inactive

Request: Test call, this compound: COc1ccc2c(c1)c(-c1nonc1-c1cn(C)c3ccccc13)cn2C
Response: inactive

Request: Test call, this compound: COc1ccc(S(=O)(=O)N2CCCCC2)cc1NC(=O)c1[nH]c(C)c2c1CCCCC2=O
Response: active

Request: Test call, this compound: N#Cc1nnn(-c2ccc(S(N)(=O)=O)cc2)c1NC(=O)CCl
Response: inactive

Request: Test call, this compound: CC(C)c1c(C(=O)c2ccccc2)c(-c2ccccc2)c(-c2ccc(F)cc2)n1CC[C@@H](O)C[C@@H](O)CC(=O)O
Response: inactive

Request: Test call, this compound: Oc1ccccc1-c1nnc(CNc2ccc(Cl)cc2)o1
Response: inactive

Request: Test call, this compound: CCOc1cc2ncc(C#N)c(Nc3ccc(OCc4cccc(F)c4)c(Cl)c3)c2cc1NC(=O)CCCCC1CCSS1 (stereo not given)
Response: inactive

Request: Test call, this compound: COCCNc1ccc2c3c(cccc13)C(=O)N(CCN(C)C)C2=O
Response: inactive

Request: Test call, this compound: O=C(Oc1cccnc1)c1ccsc1Nc1ccnc(C(F)(F)F)c1
Response: inactive

Request: Test call, this compound: CCN(CC)c1ccc(-c2cc(-c3cc(OC)c(OC)c(OC)c3)nc(N3CCOCC3)c2C#N)cc1
Response: inactive

Request: Test call, this compound: N#Cc1nnn(-c2ccc(S(N)(=O)=O)cc2)c1NCC(=O)c1ccccc1
Response: inactive

Request: Test call, this compound: Fc1ccc(CNc2cccc3[nH]c(C(F)(F)F)nc23)cc1
Response: inactive

Request: Test call, this compound: C#Cc1cccc(NC(=O)c2ccccc2NC(=O)C=C)c1
Response: inactive

Request: Test call, this compound: COc1ccc(/C=C/c2nc(-c3n[nH]c(=O)n3-c3ccccc3)c3ccccc3n2)cc1
Response: inactive

---

test system: NCI-H522 lung; experiment: NCI-60 one-dose screen, 48 h (100 = growth as untreated, 0 = no growth, -100 = all killed); conditions: 10 µM unless noted
This is part of a sample that, as a whole, favours compounds with a hit. Of some 83,000 tested, about 20% had one in any assay.
// rule not met strictly below 50% in growth; rule met otherwise

Past entries and their recorded results:
INSERT INTO assay_data (structure_string, category) VALUES
  ('COc1cccc(-c2nc3sccn3c2-c2ccnc(NCCNS(=O)(=O)c3ccccc3)c2)c1', 'rule not met'),
  ('COc1ccc2cc(-c3nn(-c4ccc(C(=O)O)cc4)cc3CO)ccc2c1', 'rule met'),
  ('COc1cc(-c2nn(-c3ccc(C(=O)O)cc3)cc2C(=O)O)ccc1O', 'rule not met');

Request: Test whether the compound COc1ccc(-c2nn(-c3ccc(Cl)cc3)cc2-c2nc3ccccc3[nH]2)cc1 records growth of 50% or higher.
Response: rule met
